Below, each of the molecules is paired with its reported TGI value.
# System: SF-539 CNS
# run.description: NCI tumour cell line growth inhibition, 48 h

O=C(CCc1nc(=S)[nH][nH]1)Nc1ccccc1Cl : > 100 µM
CC(C)=CCC(O)[C@](C)(O)[C@H]1[C@H](O)C[C@@]2(C)[C@@H]3CCc4cc(O)c(OC5OC(CO)C(O)C(O)C5O)cc4C3(C)C(=O)C[C@]12C (some centres undefined) : > 100 µM

Exam item: For the molecule Cc1cc(NS(=O)(=O)c2ccc(Nc3c4ccccc4nc4c(C(=O)N5CCN(CCO)CC5)cccc34)cc2)no1 , what TGI is on record?
Marked response: > 100 µM

Exam item: # iterate: O=C(c1ccco1)N(C(=S)OCCOc1ccccc1)c1ccccc1
Marked response: 39 µM
